# assay target: T1, CathepsinG, from human neutrophils (human, UniProt P08311 21-244)
# T1 sequence (looked up): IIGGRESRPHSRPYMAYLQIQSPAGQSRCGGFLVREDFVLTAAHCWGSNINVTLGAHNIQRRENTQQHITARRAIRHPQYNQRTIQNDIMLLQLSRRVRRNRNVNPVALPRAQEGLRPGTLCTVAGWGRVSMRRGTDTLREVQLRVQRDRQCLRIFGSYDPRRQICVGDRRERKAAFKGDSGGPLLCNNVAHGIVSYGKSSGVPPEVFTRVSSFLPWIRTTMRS
# assay overview: cell-based or functional assay
Bridges are numbered along the chain shown (N, C = ends). [ ]: non-standard residue; d: D form. AlloThr = allo threonine

binder	units of measure	IC50
FCTKSDPPXCS (HELM PEPTIDE1{F.C.T.K.S.D.P.P.[Cha].C.S.[dP].P}$PEPTIDE1,PEPTIDE1,2:R3-10:R3|PEPTIDE1,PEPTIDE1,1:R1-13:R2$$$V2.0; SMILES C[C@@H](O)[C@@H]1NC(=O)[C@@H]2CSSC[C@H](NC(=O)[C@H](CC3CCCCC3)NC(=O)[C@@H]3CCCN3C(=O)[C@@H]3CCCN3C(=O)[C@H](CC(=O)O)NC(=O)[C@H](CO)NC(=O)[C@H](CCCCN)NC1=O)C(=O)N[C@@H](CO)C(=O)N1CCC[C@@H]1C(=O)N1CCC[C@H]1C(=O)N[C@@H](Cc1ccccc1)C(=O)N2) [Example 16]	nmol	66
RETKSDPPIRF (HELM PEPTIDE1{R.E.T.K.S.D.P.P.I.R.F.[dP].P}$PEPTIDE1,PEPTIDE1,1:R1-13:R2$$$V2.0; SMILES CC[C@H](C)[C@@H]1NC(=O)[C@@H]2CCCN2C(=O)[C@@H]2CCCN2C(=O)[C@H](CC(=O)O)NC(=O)[C@H](CO)NC(=O)[C@H](CCCCN)NC(=O)[C@H]([C@@H](C)O)NC(=O)[C@H](CCC(=O)O)NC(=O)[C@H](CCCNC(=N)N)NC(=O)[C@@H]2CCCN2C(=O)[C@H]2CCCN2C(=O)[C@H](Cc2ccccc2)NC(=O)[C@H](CCCNC(=N)N)NC1=O) [Example 7]	nmol	91
WCTKSDPPICS (HELM PEPTIDE1{W.C.T.K.S.D.P.P.I.C.S.[dP].P}$PEPTIDE1,PEPTIDE1,2:R3-10:R3|PEPTIDE1,PEPTIDE1,1:R1-13:R2$$$V2.0; SMILES CC[C@H](C)[C@@H]1NC(=O)[C@@H]2CCCN2C(=O)[C@@H]2CCCN2C(=O)[C@H](CC(=O)O)NC(=O)[C@H](CO)NC(=O)[C@H](CCCCN)NC(=O)[C@H]([C@@H](C)O)NC(=O)[C@@H]2CSSC[C@H](NC1=O)C(=O)N[C@@H](CO)C(=O)N1CCC[C@@H]1C(=O)N1CCC[C@H]1C(=O)N[C@@H](Cc1c[nH]c3ccccc13)C(=O)N2) [Example 61]	nmol	72
FCTXSDPPICY (HELM PEPTIDE1{F.C.T.[Nle].S.D.P.P.I.C.Y.[dP].P}$PEPTIDE1,PEPTIDE1,2:R3-10:R3|PEPTIDE1,PEPTIDE1,1:R1-13:R2$$$V2.0; SMILES CCCC[C@@H]1NC(=O)[C@H]([C@@H](C)O)NC(=O)[C@@H]2CSSC[C@H](NC(=O)[C@H]([C@@H](C)CC)NC(=O)[C@@H]3CCCN3C(=O)[C@@H]3CCCN3C(=O)[C@H](CC(=O)O)NC(=O)[C@H](CO)NC1=O)C(=O)N[C@@H](Cc1ccc(O)cc1)C(=O)N1CCC[C@@H]1C(=O)N1CCC[C@H]1C(=O)N[C@@H](Cc1ccccc1)C(=O)N2) [Example 23]	nmol	38
ICTKSDPPXCR (HELM PEPTIDE1{I.C.T.K.S.D.P.P.[Nle].C.R.[dP].P}$PEPTIDE1,PEPTIDE1,2:R3-10:R3|PEPTIDE1,PEPTIDE1,1:R1-13:R2$$$V2.0; SMILES CCCC[C@@H]1NC(=O)[C@@H]2CCCN2C(=O)[C@@H]2CCCN2C(=O)[C@H](CC(=O)O)NC(=O)[C@H](CO)NC(=O)[C@H](CCCCN)NC(=O)[C@H]([C@@H](C)O)NC(=O)[C@@H]2CSSC[C@H](NC1=O)C(=O)N[C@@H](CCCNC(=N)N)C(=O)N1CCC[C@@H]1C(=O)N1CCC[C@H]1C(=O)N[C@@H]([C@@H](C)CC)C(=O)N2) [Example 57]	nmol	41
ICTKSDPPYCR (HELM PEPTIDE1{I.C.T.K.S.D.P.P.Y.C.R.[dP].P}$PEPTIDE1,PEPTIDE1,2:R3-10:R3|PEPTIDE1,PEPTIDE1,1:R1-13:R2$$$V2.0; SMILES CC[C@H](C)[C@@H]1NC(=O)[C@@H]2CCCN2C(=O)[C@H]2CCCN2C(=O)[C@H](CCCNC(=N)N)NC(=O)[C@@H]2CSSC[C@H](NC1=O)C(=O)N[C@@H]([C@@H](C)O)C(=O)N[C@@H](CCCCN)C(=O)N[C@@H](CO)C(=O)N[C@@H](CC(=O)O)C(=O)N1CCC[C@H]1C(=O)N1CCC[C@H]1C(=O)N[C@@H](Cc1ccc(O)cc1)C(=O)N2) [Example 18]	nmol	47
cyclo(FCTK[AlloThr]DPPICS[dP]P) (disulfide 2-10) [Example 24]	nmol	71
YCTKSDPPICY (HELM PEPTIDE1{Y.C.T.K.S.D.P.P.I.C.Y.[dP].P}$PEPTIDE1,PEPTIDE1,2:R3-10:R3|PEPTIDE1,PEPTIDE1,1:R1-13:R2$$$V2.0; SMILES CC[C@H](C)[C@@H]1NC(=O)[C@@H]2CCCN2C(=O)[C@@H]2CCCN2C(=O)[C@H](CC(=O)O)NC(=O)[C@H](CO)NC(=O)[C@H](CCCCN)NC(=O)[C@H]([C@@H](C)O)NC(=O)[C@@H]2CSSC[C@H](NC1=O)C(=O)N[C@@H](Cc1ccc(O)cc1)C(=O)N1CCC[C@@H]1C(=O)N1CCC[C@H]1C(=O)N[C@@H](Cc1ccc(O)cc1)C(=O)N2) [Example 26]	nmol	49

Values were extracted from patent US20140213531A1.
